Source listed as patent US11926631B2.

Assay: BrdU cell proliferation assay (cytotoxicity) on HEK293 cells
Type: cell-based
Settings: human, 96 h incubation, BrdU assay (FIG. 4)
Description: BrdU Cell Proliferation Assay on HEK293 and HEK293 OATP1B3 cells Black 96-well plates with clear bottom with 2.0×10^3 HEK293 and HEK293 OATP1B3 cells/well and 90 μl growth medium per well including 10% FCS and supplements were prepared. Controls: “Blank” was set up with 100 μl medium without cells, “Background” and “100%” were set up with cells in 100 μl medium. Incubation for 24 h at 37° C. and 5% CO2. Dilution Scheme of HDP 30.2528 and Alpha-Amanitin: […]
*1 amine or outer side, *2 acyl side, *3 side chain or, on linkers, in order; H or OH if unused. Where a SMILES comes first, the peptide text is derived from it. Bridges are numbered along the chain shown (N, C = ends). [ ]: non-standard residue; d: D form. ξ: configuration not given here. Ile(4R-OH,5-OH) = C[C@H]([C@H](N)C(=O)O)[C@@H](O)CO; X2 = Nc1ccc2c(CC(N[*:1])C(=O)[*:2])c([*:3])[nH]c2c1; X1 = O=C([C@@H]1CC(O)CN1[*:1])[*:2]; ξC = NC(CS)C(=O)O
readout-type: EC50 at 96 h (nM)
Give the value, in units of nM, as a plain number.

Field EC50 at 96 h (entry CC[C@H](C)[C@@H]1NC(=O)CNC(=O)C2Cc3c([nH]c4cc(N)ccc34)SCC(NC(=O)CNC1=O)C(=O)N[C@@H](CC(N)=O)C(=O)N1CC(O)C[C@H]1C(=O)N[C@@H]([C@@H](C)[C@@H](O)CO)C(=O)N2 (stereo partly drawn) [HDP 30.2528, 6′-amino-amaninamide] (cyclo(GIG[ξC]N[X1][Ile(4R-OH,5-OH)][X2]); thioether 4-8) ) reads 3000
